Tested on: OVCAR-8 ovarian
measurement protocol: NCI-60 one-dose screen, 48 h
study conditions: 10 µM unless noted
About 83,000 compounds went through this panel and 20% of them were active in at least one assay; those are over-represented in the sample as a whole. Active and inactive are the calls of the source. How the source made its calls: active means growth percent below 10; inactive means the rest.
Labels: yes (1) = active, no (0) = inactive

                                    compound    label
 0  COc1ccc(S(=O)(=O)Nc2ccc(-c3ccc4c(c3)NC(=O)/C4=C\c3ccc[nH]3)cc2)cc1OC  yes (1)
 1  N#Cc1cc(-c2ccnc(Nc3ccc(N4CCN(C5COC5)CC4)cc3)n2)ccc1N1CCCC1   no (0)
 2  Fc1ccc(F)c(CNc2nc(SCCN3CCOCC3)nc3c2cnn3CC(Cl)c2ccc(Br)cc2)c1 (stereo not drawn)   no (0)
 3  Nc1cc(-c2c[nH]c3ccc(Cl)cc23)nc2cc(-c3c[nH]c4ccccc34)nn12  yes (1)
 4  N#CC1=C(c2ccco2)Nc2c(c(-c3ccccc3)nn2-c2ccccc2)C12C(=O)Nc1ccc(Br)cc12 (stereo not drawn)   no (0)
 5  Cc1ccc2nc(COc3ccc(C(=O)NNC(=O)Nc4ccc(Cl)c(C(F)(F)F)c4)cc3)[nH]c2c1   no (0)
 6  Cc1ccc(S(=O)(=O)N(CCn2ccnc2[N+](=O)[O-])CCn2ccnc2[N+](=O)[O-])cc1   no (0)
 7  COc1cc(C=O)ccc1OC(=O)c1cc(-c2ccc(C)cc2)n(-c2ccc(S(C)(=O)=O)cc2)n1   no (0)
 8  CC1=C(C(=O)Nc2ccccc2)C(c2cccc3ccccc23)n2c(nc3ccccc32)N1 (stereo not drawn)  yes (1)
 9  CC(C)(C)C(=O)C1CC(C#N)=C2C=Cc3c(ccc4ccccc34)N21 (stereo not drawn)   no (0)
10  COc1ccc2[nH]c(=O)cc(-n3ncc(C(=O)/C=C/c4cc(OC)c(OC)c(OC)c4)c3C)c2c1   no (0)
11  CC(C)C[C@H](NC(=O)CNC(=O)C[C@H]1O[C@@H]2OC3(C)CC[C@H]4[C@H](C)CC[C@@H]([C@H]1C)[C@@]24O3)B(O)O  yes (1)
12  Cn1cc(-c2cc(N)n3nc(-c4c[nH]c5ccccc45)cc3n2)c2cc(Br)ccc21  yes (1)
13  Nc1nn2c(-c3cc4cc(Br)ccc4oc3=O)ccnc2c1N=Nc1ccc(Br)cc1   no (0)
14        Cc1ccccc1NC(=O)c1cccc(NC(=O)CCl)c1   no (0)
15  COc1ccc(Nc2ncnc3sc4c(c23)CCN(Cc2ccccc2)C4)cc1   no (0)
16  CC(C)(C)OC(=O)N1CCC2(CC1)Oc1ccccc1[C@H]1CC(c3ccc(Br)cc3)=NN12   no (0)
17  Cc1cccc(NCC(=O)N2CCN(c3ncnc4c3cnn4-c3ccccc3)CC2)c1   no (0)

###

Test system: SK-MEL-5 melanoma
measurement protocol: NCI-60 one-dose screen, 48 h (100 = growth as untreated, 0 = no growth, -100 = all killed)
study conditions: 10 µM unless noted
The panel holds about 83,000 compounds, 20% with a hit somewhere; the sample as a whole holds those more often.
reported endpoint: growth (%)

                                   compound  reported_endpoint  readout_number
0  O=C(CSc1nnc(-c2ccc(-c3nc4ccccc4[nH]3)cc2)o1)Nc1ccc(Cl)cc1             growth            34.1
1  Cc1ccc(C(C)C)cc1Oc1cccc(-c2c(-c3ccc(C(F)(F)F)cc3)ncn2C2CCNCC2)n1             growth           -98.6
2  O=C(COc1ccc(/C=C2/C(=O)Nc3ccc(Cl)cc32)cc1)Nc1ccc(Br)cc1             growth           -14.8
3  OC1CCC(Cn2c(C(F)(F)F)cc3c(Cl)ncnc32)CC1 (centres undefined)             growth           -83.6
4  Nc1nc2cc(-c3ccc4ncnc(NCc5ccccc5)c4c3)ccc2o1             growth           0.196
5  COc1cc(/C=C/C(=O)c2cnn(-c3cc(=O)[nH]c4ccc(Br)cc34)c2C)cc(OC)c1OC             growth           -96.2
6  COc1cc(CNC(=O)C[C@H](C)CCC=C(C)C)ccc1OCc1cn(-c2ccc(Br)cc2)nn1             growth            55.7
7  COc1ccc(NC(=O)Nc2nc3ccc([N+](=O)[O-])cc3s2)cc1             growth           -70.7
8  COC(=O)c1c(C(=O)OC)c2c3ccccc3c3ccccc3n2c1C(=O)C(F)(F)F             growth            93.7
